assay.method.text: in vitro
protocol.conditions: human, uninfected MT-4 cells, CC50 (nM), same protocol as Test A, CellTiter-Glo
recorded.metric: CC50 at 5 days

Record excerpt, results attached:
NC(=O)c1cccc(-c2cccnc2[C@H](Cc2cc(F)cc(F)c2)NC(=O)Cn2nc(C(F)(F)F)c3c2COCC3)c1 [Example 144]: > 53000 nM
NC(=O)c1cc(-c2cccnc2[C@H](Cc2cc(F)cc(F)c2)NC(=O)Cn2nc(C(F)F)c3c2C(O)CCC3)ccc1F (stereo partly drawn) [Example 384]: > 53200 nM

The record that follows has no CC50 at 5 days shown yet.
Task: Param item = O=C(Cn1nc(C(F)F)c2c1C(F)(F)C1CC21)N[C@@H](Cc1cc(F)cc(F)c1)c1ncccc1-c1ccc2ncccc2c1 (stereo partly drawn) [Example 411] ; retrieve measured CC50 at 5 days.
Output: 8980 nM

---

assay.method.text: in vitro
protocol.conditions: human, CC50 (nM), uninfected MT-4 cells, same protocol as Test A, CellTiter-Glo
Each item that follows carries a reported CC50 at 5 days.

CC(=O)c1cn(CC(=O)N[C@@H](Cc2cc(F)cc(F)c2)c2ncccc2-c2cccc(C(N)=O)c2)c2ccccc12: 24300 nM
CC(=O)c1cn(CC(=O)N[C@@H](Cc2cc(F)cc(F)c2)c2ncccc2-c2ccc(Cl)cc2)c2ccccc12: 8150 nM
COCc1cc(C(F)(F)F)nn1CC(=O)N[C@@H](Cc1cc(F)cc(F)c1)c1ncccc1-c1ccc(F)c(C(N)=O)c1 [Example 208D]: > 53200 nM
CCc1cccc2c(C(C)=O)cn(CC(=O)N[C@@H](Cc3cc(F)cc(F)c3)c3ncccc3-c3ccc(F)c(C(N)=O)c3)c12: 24600 nM

Task: Fill blank: measured CC50 at 5 days of the molecule CCC(C(=O)N[C@@H](Cc1cc(F)cc(F)c1)c1ncccc1-c1ccc(F)c(C(N)=O)c1)n1cc(C(C)=O)c2ccccc21 (stereo partly drawn) is ____.
Output: 44000 nM

Task: What would you report for `CC(=O)c1c(C)n(CC(=O)N[C@@H](Cc2cc(F)cc(F)c2)c2ncccc2-c2ccc(Cl)cc2)c2ccccc12` ?
Output: 7080 nM

---

assay.method.text: in vitro
protocol.conditions: human, uninfected MT-4 cells, CC50 (nM), same protocol as Test A, CellTiter-Glo
Could you please mark 1 for values of CC50 at 5 days below 20000 nM and 0 for values at or above it?

Use these answered entries as a reference point.
NC(=O)c1cccc(-c2cccnc2[C@H](Cc2cc(F)cc(F)c2)NC(=O)Cc2ccccn2)c1: 0
Cc1cc(=O)n(CC(=O)N[C@@H](Cc2cc(F)cc(F)c2)c2ncccc2-c2ccnc(C(N)=O)c2)c2ccccc12: 0
O=C(Cn1nc(C(F)(F)F)cc1C1CC1)N[C@@H](Cc1cc(F)cc(F)c1)c1ncccc1-c1cnc2[nH]ccc2c1 [Example 61F]: 1
CC(C)C(C(=O)N[C@@H](Cc1cc(F)cc(F)c1)c1ncccc1-c1ccc(F)c(C(N)=O)c1)n1ccc(C(F)(F)F)n1 (single isomer, unassigned): 0

Task: hey, is CC50 at 5 days for `NC(=O)c1cc(-c2cccnc2[C@H](Cc2cc(F)cc(F)c2)NC(=O)Cn2nc(C(F)(F)F)c3c2C(=O)CCC3)ccc1F` lower than 20000 nM or not?
Output: 0

Task: Follow-up entry: `O=C(Cn1nc(C(F)F)cc1C(F)F)N[C@@H](Cc1cc(F)cc(F)c1)c1ccccn1`
Output: 0

Task: Try this compound too: `NC(=O)c1cc(-c2cccnc2[C@H](Cc2cc(F)cc(F)c2)NC(=O)Cn2ccc3cc(F)c(Cl)cc32)ccc1F`
Output: 1
